Listing: melting point of selected compounds
Attribute Measured: melting point (°C)

1. Cc1ccc(N2C(=O)C(O)=C(C(=O)c3ccc(OC(F)(F)F)cc3)C2c2ccc(Cn3ccnn3)cc2)nn1 (stereo not drawn): 275
2. Cc1ccc(N2C(=O)C(O)=C(C(=O)c3ccc(C(C)C)cc3)C2c2ccc(OC(C)C)nc2)nn1 (stereo not drawn) [Example 165]: 282
3. Cc1ccc(C(=O)C2=C(O)C(=O)N(c3ccc(C)nn3)C2c2ccc(N3CCN(CCN(C)C)CC3)cc2)cc1 (stereo not drawn): 185.3
4. COc1ccc(N2C(=O)C(O)=C(C(=O)c3ccc(C(C)C)cc3)C2c2ccc(OC(F)(F)F)cc2)nn1 (stereo not drawn) [Example 129]: 271
5. Cc1ccc(N2C(=O)C(O)=C(C(=O)c3ccc(C(C)C)cc3)C2c2ccc(Oc3ccccn3)cc2)nn1 (stereo not drawn): 280
6. Cc1ccc(N2C(=O)C(O)=C(C(=O)c3ccc(C(C)C)cc3)C2c2ccc(OC3CCOCC3)cc2)nn1 (stereo not drawn) [Example 143]: 275
7. Cc1ccc(N2C(=O)C(O)=C(C(=O)c3ccc(C(C)C)cc3)C2c2ccc(OC(C)C)nc2)nn1.Cl (stereo not drawn) [Example 167]: 280
8. Cc1ccc(N2C(=O)C(O)=C(C(=O)c3ccc(C(C)C)cc3)C2c2ccc(Cn3ncnn3)cc2)nn1 (stereo not drawn): 271
9. Cc1ccc(N2C(=O)C(O)=C(C(=O)c3ccc(C(C)C)cc3)C2c2ccc(Cn3ccnn3)cc2)nn1 (stereo not drawn): 293
10. Cc1ccc(C(=O)C2=C(O)C(=O)N(c3ccc(C)nn3)C2c2ccc(C(C)C)cc2)cc1 (stereo not drawn) [Example 8]: 279
11. Cc1ccc(N2C(=O)C(O)=C(C(=O)c3ccc(OC(F)(F)F)cc3)C2c2ccc(C(C)C)cc2)nn1 (stereo not drawn) [Example 25]: 269
12. CCOc1ccc(C2C(C(=O)c3ccc(C(C)C)cc3)=C(O)C(=O)N2c2ccc(C)nn2)cc1 (stereo not drawn) [Example 104]: 279
13. Cc1ccc(N2C(=O)C(O)=C(C(=NOCC(=O)O)c3ccc(C(C)C)cc3)C2c2ccc(OC(F)(F)F)cc2)nn1 (mixture of isomers) [Example 83]: 227
14. Cc1ccc(C(=O)C2=C(O)C(=O)N(c3ccc(C)nn3)[C@@H]2c2ccc(OC(F)(F)F)cc2)cc1 [Example 199]: 215
15. Cc1ccc(N2C(=O)C(O)=C(C(=O)c3ccc(C(C)C)cc3)C2c2ccc(Cn3cncn3)cc2)nn1 (stereo not drawn): 223
16. CC(C)c1ccc(C(=O)C2=C(O)C(=O)N(c3ccc(O)nn3)C2c2ccc(OC(F)(F)F)cc2)cc1 (stereo not drawn) [Example 159]: 255
17. Cc1ccc(N2C(=O)C(O)=C(C(=O)c3ccc(C(C)C)cc3)[C@@H]2c2ccc(C(F)(F)F)cc2)nn1 [Example 190]: 252
18. CC(C)c1ccc(C(=O)C2=C(O)C(=O)N(c3cccn(C)c3=O)C2c2ccc(OC(F)(F)F)cc2)cc1 (stereo not drawn) [Example 130]: 207
19. Cc1ccc(N2C(=O)C(O)=C(C(=O)c3ccc(C(C)C)cc3)[C@H]2c2ccc(OC(F)(F)F)cc2)nn1 [Example 188]: 217

* * *

Listing: melting point of selected compounds
Attribute Measured: melting point (°C)

1) C=C(C)c1ccc(C2C(C(=O)c3ccc(C(C)C)cc3)=C(O)C(=O)N2c2ccc(C)nn2)cc1 (stereo not shown): 274
2) Cc1ccc(N2C(=O)C(O)=C(C(=O)c3ccc(C(C)C)cc3)C2c2ccc(OCCN3CCOCC3)cc2)nn1 (stereo not shown): 256
3) CC(C)c1ccc(C(=O)C2=C(O)C(=O)N(c3ccc(OCc4ccccc4)nn3)C2c2ccc(OC(F)(F)F)cc2)cc1 (stereo not shown): 269
4) COc1cccc(C2C(C(=O)c3ccc(C)cc3)=C(O)C(=O)N2c2ccc(C)nn2)c1 (stereo not shown): 265
5) COc1ccc(C2C(C(=O)c3ccc(OC(F)(F)F)cc3)=C(O)C(=O)N2c2ccc(C)nn2)cc1 (stereo not shown): 279
6) COc1ccc(C(=O)C2=C(O)C(=O)N(c3ccc(C)nn3)C2c2ccc(OC)cc2)cc1 (stereo not shown): 259
7) Cc1ccc(N2C(=O)C(O)=C(C(=O)c3ccc(OC(F)(F)F)cc3)C2c2ccc(Cn3nccn3)cc2)nn1 (stereo not shown): 277
8) Cc1ccc(N2C(=O)C(O)=C(C(=O)c3ccc(CC(C)C)cc3)C2c2ccc(OC(F)(F)F)cc2)nn1 (stereo not shown): 260
9) Cc1ccc(C(=O)C2=C(O)C(=O)N(c3ccc(C)nn3)C2c2ccc(C(F)(F)F)cc2)cc1 (stereo not shown): 278
10) Cc1ccc(N2C(=O)C([O-])=C(C(=O)c3ccc(C(C)C)cc3)C2c2ccc(C(C)C)cc2)cn1.[Na+] (stereo not shown): 215
11) Cc1ccc(N2C(=O)C(O)=C(C(=O)c3ccccc3C)C2c2ccc(C(C)C)cc2)nn1 (stereo not shown): 221
12) C=C(C)c1ccc(C(=O)C2=C(O)C(=O)N(c3ccc(C)nn3)C2c2ccc(OC(F)(F)F)cc2)cc1 (stereo not shown): 253
13) CC(=O)OC1=C(C(=O)c2ccc(C(C)C)cc2)C(c2ccc(C(C)C)cc2)N(c2ccc(C)nn2)C1=O (stereo not shown): 215

Data credit: patent US20120128630A1
